target: Aurora A (Homo sapiens, UniProt O14965)
Sequence (O14965 whole entry): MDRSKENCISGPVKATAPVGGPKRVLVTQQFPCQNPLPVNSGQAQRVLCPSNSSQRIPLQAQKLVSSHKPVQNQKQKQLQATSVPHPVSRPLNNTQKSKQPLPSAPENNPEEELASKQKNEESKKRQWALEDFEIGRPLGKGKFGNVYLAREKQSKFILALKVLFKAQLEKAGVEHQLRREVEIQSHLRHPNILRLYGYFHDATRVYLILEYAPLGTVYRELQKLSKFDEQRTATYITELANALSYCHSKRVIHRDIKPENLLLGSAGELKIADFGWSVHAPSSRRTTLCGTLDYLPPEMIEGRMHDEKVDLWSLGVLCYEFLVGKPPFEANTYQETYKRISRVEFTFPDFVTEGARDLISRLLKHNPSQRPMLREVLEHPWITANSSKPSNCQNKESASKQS
pKi: −log10 of the molar value.
Entries and their measured pKi follow.

>  <Smiles Repr>
OCCn1cc(Nc2ncc(Cl)c(Nc3ccc4[nH]ncc4c3)n2)cn1

>  <pKi>
> 7.00

$$$$
>  <Smiles Repr>
CNC(=O)Cn1cc(Nc2ncc(Br)c(N[C@H]3[C@@H](C(N)=O)[C@@H]4C=C[C@H]3C4)n2)cn1

>  <pKi>
> 7.00

$$$$
>  <Smiles Repr>
CC1(C)[C@H]2C[C@H](C(N)=O)[C@H](Nc3nc(Nc4cnn(Cc5ccccc5)c4)ncc3Cl)[C@@H]1C2

>  <pKi>
> 7.00

$$$$
>  <Smiles Repr>
NC(=O)[C@@H]1[C@H](Nc2nc(Nc3cnn(C[C@@H](O)CO)c3)ncc2Cl)[C@H]2C=C[C@@H]1C2

>  <pKi>
> 7.00

$$$$
